Numbers sourced from the supplement of paper PMC8960247.

Listed here are compounds together with their documented relative viability.
Test system: 621-102 (TSC2-deficient)
method_summary: relative viability vs DMSO (fraction); higher = less cytotoxic
test_parameters: 200 nM; serum: 0.1% FBS; 72 h
Response field accepts a number only; no unit should be typed.

Specify reported relative viability for the compound shown: `O=C(Cc1ccc(-c2ccc(OCCN3CCOCC3)cc2)cn1)NCc1ccccc1` 0.069

Specify reported relative viability for the compound shown: `NC(=O)Nc1cc(-c2cccc(F)c2)sc1C(=O)N[C@H]1CCCNC1` 0.00396

====

Test system: UMB1949 (TSC2-deficient)
method_summary: relative viability vs DMSO (fraction); higher = less cytotoxic
test_parameters: 40 nM; serum: 0.1% FBS; 72 h
property_label: relative viability
Response field accepts a number only; no unit should be typed.

Study these solved cases before continuing.
>  <compound>
CCCCc1nc2cc(/C=C/C(=O)NO)ccc2n1CCN(CC)CC

>  <relative viability>
0.31

$$$$
>  <compound>
CO[C@H]1C[C@@H]2CC[C@@H](C)[C@@](O)(O2)C(=O)C(=O)N2CCCC[C@H]2C(=O)O[C@H]([C@H](C)C[C@@H]2CC[C@@H](OCCO)[C@H](OC)C2)CC(=O)[C@H](C)/C=C(\C)[C@@H](O)[C@@H](OC)C(=O)[C@H](C)C[C@H](C)/C=C/C=C/C=C/1C [Everolimus(RAD001)]

>  <relative viability>
0.847

$$$$

Switching to the query record.
Specify reported relative viability for the compound shown: `Cc1cnc(NC(=O)Nc2cc(Br)c(C)cc2OC[C@@H]2CNCCO2)cn1` 0.00749

====

Listed here are compounds together with their documented relative viability.
Test system: 621-102 (TSC2-deficient)
method_summary: relative viability vs DMSO; higher = less cytotoxic
test_parameters: 1 µM; serum: 10% FBS; 72 h
Please state the figure in %; there is no need to write the unit.

Study these solved cases before continuing.
>  <compound>
O=C1NC(=O)/C(=C/c2ccc3nccc(-c4ccncc4)c3c2)S1

>  <relative viability [%]>
80.5

$$$$
>  <compound>
CC(C)c1cc(-c2ccc(F)c3ccccc23)nc(N)n1

>  <relative viability [%]>
93.4

$$$$
>  <compound>
Cn1cc(-c2ccc3nnc(Sc4ccc5ncccc5c4)n3n2)cn1 [SGX-523]

>  <relative viability [%]>
104

$$$$

Supply relative viability measured with 621-102 (TSC2-deficient) for N=C(N)NC(=N)N1CCOCC1 [Moroxydine] . 110

Supply relative viability measured with 621-102 (TSC2-deficient) for CO[C@@H]1[C@@H](OC(N)=O)[C@@H](O)[C@H](Oc2ccc3c(O)c(NC(=O)c4ccc(O)c(CC=C(C)C)c4)c(=O)oc3c2C)OC1(C)C [Novobiocin sodium (Albamycin)] . 107

Supply relative viability measured with 621-102 (TSC2-deficient) for CCN(CC)CCNC(=O)c1c(C)[nH]c(/C=C2\C(=O)Nc3ccc(F)cc32)c1C [Sunitinib Malate] . 125

Supply relative viability measured with 621-102 (TSC2-deficient) for Cc1ccc(C(=O)N(CCCN)[C@@H](c2nc3cc(Cl)ccc3c(=O)n2Cc2ccccc2)C(C)C)cc1 [Ispinesibmesilate] . 73

Supply relative viability measured with 621-102 (TSC2-deficient) for O=C(O)c1ccc2c(c1)nc(Nc1cccc(Cl)c1)c1ccncc12 [CX-4945] . 101

====

Test system: UMB1949 (TSC2-deficient)
method_summary: relative viability vs DMSO (fraction); higher = less cytotoxic
test_parameters: 1000 nM; serum: 0.1% FBS; 72 h
Structures can show the parent of a compound that is named as a salt.
property_label: relative viability
Response field accepts a number only; no unit should be typed.

Study these solved cases before continuing.
>  <molecule>
CC(C)C[C@H](NC(=O)CNC(=O)c1cc(Cl)ccc1Cl)B(O)O [MLN2238]

>  <tgt>
UMB1949 (TSC2-deficient)

>  <relative viability>
0.000634

$$$$
>  <molecule>
Cn1c(Nc2ccc(C(F)(F)F)cc2)nc2cc(Oc3ccnc(-c4ncc(C(F)(F)F)[nH]4)c3)ccc21 [RAF265]

>  <tgt>
UMB1949 (TSC2-deficient)

>  <relative viability>
0.00279

$$$$
>  <molecule>
O=C1Nc2ccccc2/C1=C1/Nc2ccccc2C1=O [Indirubin]

>  <tgt>
UMB1949 (TSC2-deficient)

>  <relative viability>
0.811

$$$$
>  <molecule>
CC(C)c1cc(C(C)C)c(CC(=O)NS(=O)(=O)Oc2c(C(C)C)cccc2C(C)C)c(C(C)C)c1 [Avasimibe]

>  <tgt>
UMB1949 (TSC2-deficient)

>  <relative viability>
0.00835

$$$$
>  <molecule>
Cc1ccc([N+](=O)[O-])cc1S(=O)(=O)N(C)/N=C/c1cnc2ccc(Br)cn12 [PIK-75 Hydrochloride]

>  <tgt>
UMB1949 (TSC2-deficient)

>  <relative viability>
0.00356

$$$$
>  <molecule>
C=C1C[C@@H]2[C@H](CC[C@]3(C)C(=O)CC[C@@H]23)[C@@]2(C)C=CC(=O)C=C12 [Exemestane]

>  <tgt>
UMB1949 (TSC2-deficient)

>  <relative viability>
0.859

$$$$
>  <molecule>
CNC(=O)c1cc(Oc2ccc(NC(=O)Nc3cc(C(C)(C)C)nn3-c3ccc4ncccc4c3)c(F)c2)ccn1 [DCC-2036]

>  <tgt>
UMB1949 (TSC2-deficient);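 note: renal angiomyolipoma cell lines screened in 384-well plates, viability normalized per plate to DMSO-treated cells, each plate carrying 50 nM rapamycin and 1 µM staurosporine controls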

>  <relative viability>
0.00706

$$$$

Switching to the query record.
Specify reported relative viability for the molecule shown: CC(C)[C@H](C(=O)Nc1ccc(C(=O)NO)cc1)c1ccccc1 [AR-42] 0.00772

====

Tested on: 621-102 (TSC2-deficient)
method_summary: relative viability vs DMSO; higher = less cytotoxic
test_parameters: 0.1 µM; serum: 10% FBS; 72 h
Counter-ions that a name gives are not always drawn.
property_label: relative viability

Study these solved cases before continuing.
>  <compound>
CC(C)c1cc(-c2ccc(F)c3ccccc23)nc(N)n1

>  <property_label>
relative viability

>  <observed>
94.6%

$$$$
>  <compound>
COc1nc(C)cnc1NS(=O)(=O)c1cccnc1-c1ccc(-c2nnco2)cc1 [Zibotentan (ZD4054)]

>  <property_label>
relative viability

>  <observed>
114%

$$$$
>  <compound>
O=C(Nc1cccc(Cl)c1)Nc1ncc(CCNc2ncnc3ccsc23)s1 [SNS-314 Mesylate]

>  <property_label>
relative viability

>  <observed>
65.9%

$$$$
>  <compound>
Cc1ncc([N+](=O)[O-])n1CC(C)O (stereo not given)

>  <property_label>
relative viability

>  <observed>
101%

$$$$
>  <compound>
COC(=O)[C@H](c1ccccc1Cl)N1CCc2sccc2C1 [Clopidogrel Bisulfate]

>  <property_label>
relative viability

>  <observed>
105%

$$$$
>  <compound>
CCC(=O)O[C@H]1CC[C@H]2[C@@H]3CCC4=CC(=O)CC[C@]4(C)[C@H]3CC[C@]12C [Testosterone propionate (Agovirin)]

>  <property_label>
relative viability

>  <observed>
104%

$$$$
>  <compound>
CC(C)(C)c1cnc(CSc2cnc(NC(=O)C3CCNCC3)s2)o1

>  <property_label>
relative viability

>  <observed>
51.1%

$$$$
>  <compound>
c1ccc2c(-c3cnn4cc(-c5ccc(N6CCNCC6)cc5)cnc34)ccnc2c1

>  <property_label>
relative viability

>  <observed>
91.6%

$$$$

Specify reported relative viability for the compound shown: `N#CC(=C(/N)Sc1ccccc1N)/C(C#N)=C(\N)Sc1ccccc1N` 103%

Specify reported relative viability for the compound shown: `Cc1ccc(CN2CCNCC2)cc1NC(=O)CNc1ccc(F)c(F)c1` 104%

Specify reported relative viability for the compound shown: `CN(C)C(=O)[C@H](O)[C@H](Cc1ccccc1)NC(=O)c1cc2cc(Cl)ccc2[nH]1` 110%

Specify reported relative viability for the compound shown: `OCCn1cc(-c2ccc3c(c2)CC/C3=N\O)c(-c2ccncc2)n1` 102%

Specify reported relative viability for the compound shown: `C[C@]12CC[C@H]3[C@@H](CC[C@@]45O[C@@H]4C(O)=C(C#N)C[C@]35C)[C@@H]1CC[C@@H]2O` 101%

Specify reported relative viability for the compound shown: `C#Cc1cccc(Nc2ncnc3cc(OCCOC)c(OCCOC)cc23)c1` 103%

Specify reported relative viability for the compound shown: `CC(C)c1cc(C(C)C)c(CC(=O)NS(=O)(=O)Oc2c(C(C)C)cccc2C(C)C)c(C(C)C)c1` 99.6%

Specify reported relative viability for the compound shown: O=C(NOCC(O)CO)c1cc(Br)c(F)c(F)c1Nc1ccc(I)cc1F (stereo not given) 106%

Specify reported relative viability for the compound shown: C/C(=C\c1csc(C)n1)[C@@H]1C[C@@H]2O[C@]2(C)CCC[C@H](C)[C@H](O)[C@@H](C)C(=O)C(C)(C)[C@@H](O)CC(=O)O1 [Epothilone B (EPIO906)] 32.2%

Specify reported relative viability for the compound shown: `COc1ccccc1N1CCN(CCN(C(=O)C2CCCCC2)c2ccccn2)CC1` 104%

Specify reported relative viability for the compound shown: O=C(O[C@H]1C[C@H]2CC[C@@H](C1)[N+]21CCCC1)C(O)(c1ccccc1)c1ccccc1 [Trospium chloride (Sanctura)] 95.4%
